test system: M19-MEL; experiment: NCI tumour cell line growth inhibition, 48 h
The source made the active and inactive calls. Cut-off read from the data, not from the text of the source: active = GI50 up to about 1.1 µM and inactive = higher.
GI50 by entry:
MEASUREMENT LABEL: GI50

[[record]]
molecule = "COc1cc[n+](C)cc1"
experimental_result = "> 100 µM (inactive)"

[[record]]
molecule = "O=C(/C=C/c1c(O)ccc2ccccc12)c1ccc2ccccc2c1"
experimental_result = "18.2 µM (inactive)"

[[record]]
molecule = "COC[C@@H](/N=C/N1CCc2cc(OC)c(OC)cc2C1)C(C)(C)C"
experimental_result = "> 100 µM (inactive)"

[[record]]
molecule = "Cc1ccc2nc3cc(C)c(=O)cc-3sc2c1"
experimental_result = "16.1 µM (inactive)"

[[record]]
molecule = "O=C(O)Cc1cc(=O)oc2cc(O)c(Cl)cc12"
experimental_result = "> 100 µM (inactive)"

[[record]]
molecule = "CCCC1=C(CC)C(C(=O)Nc2c(C)cccc2C)=NC(S)N1 (stereo unspecified)"
experimental_result = "> 100 µM (inactive)"

[[record]]
molecule = "COC(=O)C12CC3CC(C1)CC(C(=O)OC)(C3)C2"
experimental_result = "> 100 µM (inactive)"

[[record]]
molecule = "COC(=O)C(=O)C(C(=O)C(=O)Nc1ccccc1C(N)=O)c1nc2ccc([N+](=O)[O-])cc2nc1O (stereo unspecified)"
experimental_result = "> 100 µM (inactive)"

[[record]]
molecule = "CN(C)CC1CCCCCCCCCCCCC(CN(C)C)C1=O (stereo unspecified)"
experimental_result = "12.6 µM (inactive)"

[[record]]
molecule = "CCOC(=O)Cc1nc2ccc3c(c2nc1O)C(=O)c1ccccc1C3=O"
experimental_result = "78.2 µM (inactive)"

[[record]]
molecule = "Cc1ccc(C)c(NC(=O)CC2SC(Nc3ccccc3Cl)=NC2=O)c1 (stereo unspecified)"
experimental_result = "94.4 µM (inactive)"


* * *

GI50 by entry:
tested on: RXF 393; assay: NCI tumour cell line growth inhibition, 48 h
Calls of active or inactive are those of the source. Rule as the data show it: active = GI50 up to about 1.1 µM and inactive = higher.
MEASUREMENT LABEL: GI50

[[record]]
molecule = "c1ccc(CC2COC(c3cccs3)=N2)cc1 (stereo not given)"
assayed_target = "RXF 393"
experimental_result = "24.5 µM (inactive)"

[[record]]
molecule = "C=C[C@H]1CN2CC[C@H]1C[C@@H]2[C@@H](O)c1ccnc2ccccc12"
assayed_target = "RXF 393"
experimental_result = "> 100 µM (inactive)"

[[record]]
molecule = "CCOC(=O)c1c(NC(=O)c2cccs2)sc2c1CCC2"
assayed_target = "RXF 393"
experimental_result = "> 100 µM (inactive)"

[[record]]
molecule = "CCCc1nn(C)c(CCC(=O)N(Cc2ccccc2)Cc2ccccc2)c1CC"
assayed_target = "RXF 393"
experimental_result = "> 100 µM (inactive)"

[[record]]
molecule = "C=CCNC(=O)/C=C\\C(=O)O"
assayed_target = "RXF 393"
experimental_result = "> 100 µM (inactive)"

[[record]]
molecule = "O=C1C(NCCc2ccc(O)c(O)c2)=CC(=O)c2ncccc21"
assayed_target = "RXF 393"
experimental_result = "13.8 µM (inactive)"

[[record]]
molecule = "CC(C)CCC[C@@H](C)[C@H]1CC[C@H]2[C@@H]3CC[C@H]4C[C@@H](CCC=C(c5cc(Cl)c(O)c(C(=O)O)c5)c5cc(Cl)c(O)c(C(=O)O)c5)CC[C@]4(C)[C@H]3CC[C@]12C"
assayed_target = "RXF 393"
experimental_result = "> 100 µM (inactive)"

[[record]]
molecule = "COc1cc2c(c(OC)c1OC)-c1ccc(SC)c(=O)cc1C(CC(=O)Oc1cccc(F)c1)C2 (stereo not given)"
assayed_target = "RXF 393"
experimental_result = "0.129 µM (active)"

[[record]]
molecule = "COc1cc[n+](C)cc1"
assayed_target = "RXF 393"
experimental_result = "> 100 µM (inactive)"

[[record]]
molecule = "N#Cc1nc(Sc2cnsn2)c(Sc2cnsn2)nc1C#N"
assayed_target = "RXF 393"
experimental_result = "5.94 µM (inactive)"


Provenance of the data: ChEMBL document CHEMBL1201862
